Peptide text beside a SMILES is read from it.
measured.parameter: logP
Could you respond with only the numeric value?

S=C=Nc1ccccc1: 3.28

**Q:** Fill blank: measured logP of the molecule O=C(O)C=CC(=O)c1ccccc1 is ____.
**A:** 1.53

**Q:** Fill blank: measured logP of the molecule O=C1C=CC(=O)N1c1ccccc1 is ____.
**A:** 1.09

**Q:** Fill blank: measured logP of the molecule S=C1CCCCCN1 is ____.
**A:** 0.75

**Q:** Fill blank: measured logP of the molecule Cc1cc(=O)oc2cc(O)ccc12 is ____.
**A:** 1.9

**Q:** Fill blank: measured logP of the molecule O=C(OCn1ncc2c(=O)[nH]cnc21)c1cccc(CN2CCOCC2)c1 is ____.
**A:** 1.13

**Q:** Fill blank: measured logP of the molecule NC(=O)C1CCN(CCCN2c3ccccc3Sc3ccc(Cl)cc32)CC1 is ____.
**A:** 4.44

**Q:** Fill blank: measured logP of the molecule CCC(C)C(NC(=O)C(Cc1ccccc1)NC(C)=O)C(=O)NCC(N)=O (stereo not drawn) (Ac-Phe-Ile-Gly-NH2; configuration not given here) is ____.
**A:** 0.34

**Q:** Fill blank: measured logP of the molecule Cc1c2ccccc2c(C)c2c1ccc1ccccc12 is ____.
**A:** 5.8

**Q:** Fill blank: measured logP of the molecule CCOC(=O)C(=Cc1cccc([N+](=O)[O-])c1)C(=O)OCC is ____.
**A:** 2.71

**Q:** Fill blank: measured logP of the molecule CCCCCC1=Nc2cc(Cl)c(S(N)(=O)=O)cc2S(=O)(=O)N1 is ____.
**A:** 2.01

**Q:** Fill blank: measured logP of the molecule CC1CN1C1=CC(=O)c2ccccc2C1=O (configuration not stated) is ____.
**A:** 2.17
